Origin of values: patent US20240247080A1

Molecular target: human GLP-1 receptor (human, UniProt P43220 24-463)
Experiment: cell-based or functional assay
Starred links: 1 amine or outer side, 2 acyl side, 3 side chain; linkers in the order of their positions; H or OH if unused. Non-standard residues stand in square brackets, D forms with d. Groups on a side chain read outwards from the residue. No end group written: not given here. *: point of attachment. C20 diacid = O=C(O)CCCCCCCCCCCCCCCCCCC(=O)*; γGlu = O=C(O)[C@H](CCC(=O)[*:2])N[*:1]; εLys = N[C@@H](CCCCN[*:1])C(=O)[*:2]; Aib = CC(C)(N)C(=O)O
Hi! Could you tag entries with EC50, CreLuc assay, 0.5% hP below 0.09 nM as yes (1), and those at or above as no (0)? Much appreciated.

binder="Y[Aib]EGTFTSDYSI[Aib]LEKQAQ[Aib]AFVEWLIK([εLys-Glu-γGlu-γGlu-γGlu-γGlu-C20 diacid])GGPSYYVSLRHYYNWLTRQRY-NH2 (also: TFA salt) [Compound 75]" class_label="no (0)"
binder="YXEGTFTSDYSIXLEKQAQXAFVQWLIKGGPSSGVSLRHYYNWLTRQRY (Aib at 2, 13, 20; K28 side chain: C20DA-gGlu-gGlu-gGlu-gGlu-gGlu-gGlu-eLys; C-terminal NH2) [Compound 47]" class_label="yes (1)"
binder="Y[Aib]EGTFTSDYSI[Aib]LEKQAQ[Aib]AFVQWLIKGGPSYYASLRHYYNWLTRQRY-NH2 (not fully specified (residue 28); also: TFA salt) [Compound 59]" class_label="no (0)"
binder="YXEGTFTSDYSIXLEEQAQXAFVQWLIKGGPSSGQSLRHYYNWLTRQRY (Aib at 2, 13, 20; K28 side chain: C20DA-gGlu-Glu-gGlu-gGlu-gGlu-gGlu-eLys; C-terminal NH2) [Compound 8]" class_label="yes (1)"
